Experiment: Metabolic stability in mouse liver microsomes assessed as half life at 1 uM measured after 30 mins by HPLC-MS/MS analysis
Type: ADME, Microsome

record.smiles: Clc1cc(NCc2cnc(-c3ccc(Oc4ccccc4)cc3)s2)ccn1
reading.unit: min
half-life at 1 µM: 55
--
record.smiles: CC(C)Oc1ccc(-c2ncc(CNc3cc(Cl)nc(Cl)c3)s2)cc1
reading.unit: min
half-life at 1 µM: 37
--
record.smiles: CC(C)Oc1ccc(-c2ncc(CNc3ccnc(C(F)(F)F)c3)s2)cc1
reading.unit: min
half-life at 1 µM: 29
--
record.smiles: FC(F)(F)c1cc(NCc2csc(-c3ccc(Oc4ccccc4)cc3)n2)ccn1
reading.unit: min
half-life at 1 µM: 18
--
record.smiles: CC(C)Oc1ccc(-c2ncc(CNc3ccnc(C#N)c3)s2)cc1Cl
reading.unit: min
half-life at 1 µM: 11
--
record.smiles: FC(F)(F)c1cc(NCc2nc(-c3ccc(Oc4ccccc4)cc3)cs2)ccn1
reading.unit: min
half-life at 1 µM: 13
--
record.smiles: FC(F)(F)c1cc(NCc2nnc(-c3ccc(Oc4ccccc4)cc3)[nH]2)ccn1
reading.unit: min
half-life at 1 µM: 23
--
record.smiles: CC(C)Oc1ccc(-c2ncc(CNc3cc(Cl)nc(C(F)(F)F)c3)s2)cc1
reading.unit: min
half-life at 1 µM: 15
--
record.smiles: FC(F)(F)c1cc(NCc2cnc(-c3ccc(C4CC4)cc3)s2)ccn1
reading.unit: min
half-life at 1 µM: 14
--
record.smiles: N#Cc1ccc(NCc2cnc(-c3ccc(Oc4ccccc4)cc3)s2)nc1
reading.unit: min
half-life at 1 µM: 20
--
record.smiles: COc1ccc(-c2ncc(CNc3ccnc(C(F)(F)F)c3)s2)cc1C
reading.unit: min
half-life at 1 µM: 1
--
record.smiles: FC(F)(F)c1ccc(NCc2cnc(-c3ccc(Oc4ccccc4)cc3)s2)cn1
reading.unit: min
half-life at 1 µM: 10
--
record.smiles: FC(F)(F)c1cc(NCc2cnc(-c3ccc(Cl)nc3)s2)ccn1
reading.unit: min
half-life at 1 µM: 49
--
record.smiles: FC(F)(F)c1cc(NCc2cc(-c3ccc(Oc4ccccc4)cc3)no2)ccn1
reading.unit: min
half-life at 1 µM: 36
--
record.smiles: FC(F)(F)c1cc(NCc2cnc(-c3ccc(Cl)cc3)s2)ccn1
reading.unit: min
half-life at 1 µM: 122
--
record.smiles: CC(C)Oc1ccc(-c2ncc(CNc3cc(C#N)nc(C(F)(F)F)c3)s2)cc1
reading.unit: min
half-life at 1 µM: 32
--
record.smiles: CN(C)c1ccc(-c2ncc(CNc3ccnc(C(F)(F)F)c3)s2)cc1
reading.unit: min
half-life at 1 µM: 45
--
record.smiles: FC(F)(F)c1cc(NCc2cnc(-c3ccc(Oc4ccccc4)cc3)s2)ccn1
reading.unit: min
half-life at 1 µM: 24
--
record.smiles: FC(F)(F)c1cc(NCc2cn(-c3ccc(Oc4ccccc4)cc3)nn2)ccn1
reading.unit: min
half-life at 1 µM: 10
--
record.smiles: N#Cc1ccc(NCc2cnc(-c3ccc(Oc4ccccc4)cc3)s2)cn1
reading.unit: min
half-life at 1 µM: 38
--
record.smiles: FC(F)(F)c1cc(NCc2nnc(-c3ccc(Oc4ccccc4)cc3)o2)ccn1
reading.unit: min
half-life at 1 µM: 23
--
record.smiles: FC(F)(F)c1cc(NCc2cnc(-c3ccc(Cl)s3)s2)ccn1
reading.unit: min
half-life at 1 µM: 2

The measurements presented in this section are drawn from ChEMBL document CHEMBL5608201.
